Here the recorded growth AUC normalised to DMSO control is given for each entry.
System: S. enterica typhimurium tolC KO;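 note: active when median AUC fell below 0.1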
TEST_SUMMARY: growth AUC normalised to DMSO control (median) (fraction of control); higher = less growth inhibition, active = hit call of the paper
MEASUREMENT_SETUP: 20 µM
Structures can show the parent of a compound that is named as a salt.
The response must contain the number and no unit.

// worked examples, growth AUC normalised to DMSO control included
>>> readout_value("CN1CCCCC1CCN1c2ccccc2Sc2ccc([S+](C)[O-])cc21 (stereo not given) [Mesoridazine besylate]")
0.944
>>> readout_value("Cc1cc(C(=O)NNCc2ccccc2)no1 [Isocarboxazid]")
0.993
>>> readout_value("CN(C)CCc1c[nH]c2ccc(C[C@H]3COC(=O)N3)cc12 [Zolmitriptan]")
1
>>> readout_value("C1CCC(C(CC2CCCCN2)C2CCCCC2)CC1 (stereo not given) [Perhexiline maleate]")
0.945

Task item: Endpoint output: growth AUC normalised to DMSO control of COc1ccc(C(=O)c2ccc(C)cc2)c(O)c1 [Mexenone] . Value?
Reply: 0.931
